# interaction score per entry
Molecular target: T1, 4H3121-AA
T1 chain: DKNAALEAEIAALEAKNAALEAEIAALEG
Assay: two-hybrid library CCmax;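 further: natural log of median RNA to DNA barcode read ratio; higher means stronger binding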
Settings: mean of both orientations
ENDPOINT LABEL: interaction score

binder="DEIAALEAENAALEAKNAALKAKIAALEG [4H189-AA]" quantitative_readout=-1.84
binder="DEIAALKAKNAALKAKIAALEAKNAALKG [4H1000-AA]" quantitative_readout=-0.524
binder="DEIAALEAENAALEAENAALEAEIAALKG [4H146-AA]" quantitative_readout=-1.69
binder="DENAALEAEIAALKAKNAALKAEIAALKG [4H1146-AA]" quantitative_readout=-0.198
binder="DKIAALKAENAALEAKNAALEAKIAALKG [4H2742-AA]" quantitative_readout=-1.7
binder="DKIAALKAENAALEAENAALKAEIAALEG [4H2713-AA]" quantitative_readout=-1.64

The measurements presented in this section are drawn from paper PMC10397247.
